# maps each entry to its EC50
# Test system: intracellular T. cruzi amastigotes
# Measurement Notes: Primary high-content intracellular T. cruzi amastigote assay
# Assay type: cell-based, Trypanosoma cruzi (Silvio X10/7 A1) in Vero cells
# Settings: Trypanosoma cruzi, 72 h; read-out: EC50

| Compound | Measurement Unit | EC50 |
| --- | --- | --- |
| CC[C@@H]([C@H](C)O)n1ncn(-c2ccc(N3CCN(c4ccc(OC[C@@H]5CO[C@@](Cn6cncn6)(c6ccc(F)cc6F)C5)cc4)CC3)cc2)c1=O | nM | 1 |
| CC(=O)N1CCN(c2ccc(OCC3COC(Cn4ccnc4)(c4ccc(Cl)cc4Cl)O3)cc2)CC1 (stereo not drawn) | nM | 2 |
| CC1CS(=O)(=O)CCN1/N=C/c1ccc([N+](=O)[O-])o1 (stereo not drawn) | nM | 260 |

----------
# System: intracellular T. cruzi amastigotes
# Measurement Notes: Primary high-content intracellular T. cruzi amastigote assay
# Type: cell-based, Trypanosoma cruzi (Silvio X10/7 A1) in Vero cells
# Settings: Trypanosoma cruzi; hits of the bio-actives screen, 10-point dose-response, top concentration 50μM, 72h; read-out: pEC50 (cruzi) (converted)
Quick reference for log10 of EC50 among some molecules
Outcome Measure: log10 of EC50 (log10 of the value in µM)

| Molecule | log10 of EC50 |
| --- | --- |
| CCC(C)n1ncn(-c2ccc(N3CCN(c4ccc(OCC5COC(Cn6cncn6)(c6ccc(Cl)cc6Cl)O5)cc4)CC3)cc2)c1=O (stereo not shown) [Itraconazole] | -2.00 |
| CCC(C)(C)c1ccc(CC(C)CN2C[C@@H](C)O[C@@H](C)C2)cc1 (stereo partly shown) [Amorolfine] | 1.00 |
| COC(=O)[C@H]1[C@H]2C[C@@H]3c4[nH]c5cc(OC)ccc5c4CCN3C[C@H]2C[C@@H](OC(=O)c2cc(OC)c(OC)c(OC)c2)[C@@H]1OC [Reserpine] | 0.60 |
| CC(=O)N1CCN(c2ccc(OCC3COC(Cn4ccnc4)(c4ccc(Cl)cc4Cl)O3)cc2)CC1 (stereo not shown) [Ketoconazole] | -2.30 |
| C=C1[C@H](CO)[C@@H](O)C[C@@H]1n1cnc2c(=O)[nH]c(N)nc21 [Entecavir] | 0.60 |
| Cc1cn(-c2cc(NC(=O)c3ccc(C)c(Nc4nccc(-c5cccnc5)n4)c3)cc(C(F)(F)F)c2)cn1 [Nilotinib] | 0.40 |
| NC(=O)N/N=C/c1ccc([N+](=O)[O-])o1 [Nitrofurazone] | 0.00 |

----------
# Tested on: intracellular T. cruzi amastigotes
# Measurement Notes: Primary high-content intracellular T. cruzi amastigote assay
# Assay type: cell-based, Trypanosoma cruzi (Silvio X10/7 A1) in Vero cells
# Settings: Trypanosoma cruzi; hits of the bio-actives screen, 10-point dose-response, top concentration 50μM, 72h; read-out: pEC50 (cruzi) (converted)
EC50 listing for selected molecules.

| Molecule | Measurement Unit | EC50 |
| --- | --- | --- |
| c1ccc(-c2ccc(C(c3ccccc3)n3ccnc3)cc2)cc1 (centres unmarked) | µM | 0.01 |
| CN1CCCC(n2nc(Cc3ccc(Cl)cc3)c3ccccc3c2=O)CC1 (centres unmarked) | µM | 0.251 |
| CCOC(=O)C1=C(C)NC(C)=C(C(=O)OC)C1c1cccc([N+](=O)[O-])c1 (centres unmarked) | µM | 3.98 |
| C#C[C@]1(O)CC[C@H]2[C@@H]3CCC4=Cc5oncc5C[C@]4(C)[C@H]3CC[C@@]21C | µM | 3.98 |
| C[C@@H](c1ncncc1F)[C@](O)(Cn1cncn1)c1ccc(F)cc1F | µM | 0.0251 |
| COc1ccc(CN2CCN(C(c3ccc(F)cc3)c3ccc(F)cc3)CC2)c(OC)c1OC | µM | 3.98 |
| C=CCc1ccc(O)c(-c2ccc(O)c(CC=C)c2)c1 | µM | 2 |
| CCOC(=O)C1=C(C)NC(C)=C(C(=O)OC)C1c1cccc(Cl)c1Cl (centres unmarked) | µM | 5.01 |
| CN(C)CCCN1c2ccccc2Sc2ccc(Cl)cc21 | µM | 3.98 |
| COC(=O)C1=C(C)NC(C)=C(C(=O)OC2CCCN(Cc3ccccc3)C2)C1c1cccc([N+](=O)[O-])c1 (centres unmarked) | µM | 2 |
| CN(C)[C@@H](CCOc1cccc2ccccc12)c1ccccc1 | µM | 5.01 |
| COCCOC(=O)C1=C(C)NC(C)=C(C(=O)OC/C=C/c2ccccc2)C1c1cccc([N+](=O)[O-])c1 (centres unmarked) | µM | 1.26 |
| CC(COc1ccccc1Cc1ccccc1)N1CCCCC1 (centres unmarked) | µM | 1.26 |
| CN(C)CC/C=C1/c2ccccc2Sc2ccc(Cl)cc21 | µM | 3.16 |
| CCOc1nc2cccc(C(=O)OC(C)OC(=O)OC3CCCCC3)c2n1Cc1ccc(-c2ccccc2-c2nnn[nH]2)cc1 (centres unmarked) | µM | 6.31 |
| Fc1ccc([C@@H]2CCNC[C@H]2COc2ccc3c(c2)OCO3)cc1 | µM | 5.01 |
| COCCOC(=O)C1=C(C)NC(C)=C(C(=O)OC(C)C)C1c1cccc([N+](=O)[O-])c1 (centres unmarked) | µM | 2 |
